- PROTOCOL DETAILS: A quantitative high throughput screen for small molecules that induce DNA re-replication in MCF 10a normal breast cells. Note: nearly all actives have a fitted effect of over 50% in size.
- CONDITION NOTES: MCF 10A DNA re-replication, Hoechst nuclear intensity, 48 h; series mostly up to 46.1 µM
About 9,900 (2.8%) of roughly 350,000 compounds were called active. Inconclusive results (about 15%) are left out. Calls come from the whole dose curve; as a rule, active = well fitted activation curve with a large enough effect; inconclusive = small, poorly fitted or top-dose-only effect; inactive = no such curve, though single readings can be large or run the other way. The full list was thinned out, with actives kept by preference.
Outcome codes: active, inactive

compound=COc1cc(OC)cc(C2(C#N)CCN(C)CC2)c1 assigned_class=inactive
compound=Cc1nc2ccccc2c(=O)n1-c1ccc(Cl)cc1Cl assigned_class=inactive
compound=Brc1cc(Br)c(Oc2cc(Br)c(Br)cc2Br)cc1Br assigned_class=active
compound="c1cc2c(cc1C1OCC3C(c4ccc5c(c4)OCO5)OCC13)OCO2 (stereo not drawn)" assigned_class=inactive
compound="CC1CNCCN1c1ccc(Cl)cc1 (stereo not drawn)" assigned_class=inactive
compound=c1ccc2sc(SNC3CCCCC3)nc2c1 assigned_class=inactive
compound="CCNc1nc2[nH]c(=O)c3c(c2s1)OC(N)=C(C#N)C3c1cccs1 (stereo not drawn)" assigned_class=inactive
compound=O=C(N/N=C/c1ccc([N+](=O)[O-])o1)c1cc([N+](=O)[O-])cc([N+](=O)[O-])c1O assigned_class=inactive
compound="C[C@]12CCC3C(CC[C@H]4[C@H](O)[C@H](O)CC[C@]34C)C1CC[C@@H]2O (stereo partly drawn)" assigned_class=inactive
compound=CC[C@]1(C(=O)OC)[C@H]2C(=O)N(Cc3ccccc3)C(=O)[C@H]2[C@H]2CN=C(SCc3ccc(C#N)cc3)N21 assigned_class=inactive
compound=CNCC[C@H](Oc1ccc(C(F)(F)F)cc1)c1ccccc1 assigned_class=inactive
compound="CC1C(=O)OC2CCN3CC=C(COC(=O)C(C)(O)C1(C)O)C23 (stereo not drawn)" assigned_class=inactive
compound=C/C(CCc1c[nH]c2ccccc12)=N\O assigned_class=inactive
compound=CN=C(NC#N)NCCSCc1nc[nH]c1C assigned_class=inactive
compound=COc1ccc2c3c1O[C@H]1C[C@@H](O)C=C[C@@]31CCN(C)C2 assigned_class=inactive
compound=CCc1ccc(OCC(=O)N2CCN(CC(=O)Nc3ccccc3Cl)CC2)cc1 assigned_class=inactive
compound="CCC1(CC(C)c2ccccc2)C(=O)NC(=O)NC1=O (stereo not drawn)" assigned_class=inactive
compound="CCC1(c2ccccc2)C(=O)NC(=O)N(C)C1=O (stereo not drawn)" assigned_class=inactive
compound="Oc1ccc2c3c1OC1[C@H](O)CC[C@@]4(O)[C@@H](C2)N(CC2CC2)CC[C@]314 (stereo partly drawn)" assigned_class=inactive
compound=CCC(=O)c1ccc(OCC(=O)N2CCN(CC(=O)Nc3ccc(C)cc3)CC2)cc1 assigned_class=inactive
compound="Cc1cc2ccccn2c1C(C[N+](=O)[O-])c1c(F)cccc1Cl (stereo not drawn)" assigned_class=active
compound=Cc1cc(-c2ccc(N)c(C)c2)ccc1N assigned_class=inactive
compound="CCC(=O)OC(Cc1ccccc1)(c1ccccc1)C(C)CN(C)C (stereo not drawn)" assigned_class=inactive
